Source: ChEMBL document CHEMBL5380799

The following compounds are shown together with reported half-life at 500 µM values.
test: Metabolic stability in human plasma assessed as half life at 500 uM incubated for 480 mins by RP UPLC analysis; type: ADME, cell-free
Where a SMILES comes first, the peptide text is derived from it. Bridges are numbered along the chain shown (N, C = ends). Triazole bridges read from a SMILES are 1,4-linked. [ ]: non-standard residue; d: D form. Lys(N3) = [N-]=[N+]=NCCCC[C@H](N)C(=O)O; Pra = C#CC[C@H](N)C(=O)O
Unit h implied. Number only.

INSERT INTO assay_data (compound, endpoint_name, result_unit, readout_number) VALUES
  ('NCCCC[C@@H]1NC(=O)[C@H](Cc2ccc(O)cc2)NC(=O)[C@@H](NC(=O)[C@@H]2CCCN2C(=O)[C@H](CC(N)=O)NC(=O)[C@H](CCC(=O)O)NC(=O)[C@H](Cc2ccc(O)cc2)NC(=O)CNC(=O)[C@@H](N)CC(N)=O)CCCCn2cc(nn2)C[C@@H](C(=O)N[C@@H](CCC(=O)O)C(=O)O)NC(=O)[C@H](Cc2ccccc2)NC1=O (H-NGYENP[Lys(N3)]YKF[Pra]E-OH; triazole 7-11)', 'half-life at 500 µM', 'h', 0.675),
  ('NCCCC[C@@H]1NC(=O)[C@H](Cc2ccc(O)cc2)NC(=O)[C@@H](NC(=O)[C@@H]2CCCN2C(=O)[C@H](CC(N)=O)NC(=O)[C@H](CCC(=O)O)NC(=O)[C@H](Cc2ccc(O)cc2)NC(=O)CNC(=O)[C@@H](N)CC(N)=O)CCSCc2ccc(cc2)CSCC[C@@H](C(=O)N[C@@H](CCC(=O)O)C(=O)O)NC(=O)[C@H](Cc2ccccc2)NC1=O', 'half-life at 500 µM', 'h', 1.5),
  ('C[C@@]1(C(=O)N[C@@H](CCC(=O)O)C(=O)O)CCC/C=C\CCC[C@](C)(NC(=O)[C@@H]2CCCN2C(=O)[C@H](CC(N)=O)NC(=O)[C@H](CCC(=O)O)NC(=O)[C@@H](Cc2ccc(O)cc2)NC(=O)CNC(=O)[C@H](N)CC(N)=O)C(=O)N[C@@H](Cc2ccc(O)cc2)C(=O)N[C@@H](CCCCN)C(=O)N[C@@H](Cc2ccccc2)C(=O)N1', 'half-life at 500 µM', 'h', 2.02);

// next item, half-life at 500 µM requested
Problem: Name the recorded half-life at 500 µM for NCCCC[C@@H]1NC(=O)[C@H](Cc2ccc(O)cc2)NC(=O)[C@@H](NC(=O)[C@@H]2CCCN2C(=O)[C@H](CC(N)=O)NC(=O)[C@H](CCC(=O)O)NC(=O)[C@H](Cc2ccc(O)cc2)NC(=O)CNC(=O)[C@@H](N)CC(N)=O)CCCCNC(=O)C[C@@H](C(=O)N[C@@H](CCC(=O)O)C(=O)O)NC(=O)[C@H](Cc2ccccc2)NC1=O (H-NGYENPKYKFDE-OH; lactam 7-11) .
Result: 1.18
